# experiment.summary: Solubility limit of drug in equilibrated dissolution media
# Type: physicochemical
# condition.notes: equilibrated dissolution media (0.1 N HCl), simulated gastric fluid; 750 mL 0.1 N HCl, 37° C.
measurement.type: solubility

Recorded solubility for CCC(C)n1ncn(-c2ccc(N3CCN(c4ccc(OCC5COC(Cn6cncn6)(c6ccc(Cl)cc6Cl)O5)cc4)CC3)cc2)c1=O (stereo not shown) [Itraconazole] , please?
4 to 6 µg/mL
